Each entry below lists one item and its recorded THP1 (endogenous RXFP1) cAMP EC50 value.
Target: T1, human RXFP1 (human, UniProt Q9HBX9 1-757)
T1 sequence (looked up): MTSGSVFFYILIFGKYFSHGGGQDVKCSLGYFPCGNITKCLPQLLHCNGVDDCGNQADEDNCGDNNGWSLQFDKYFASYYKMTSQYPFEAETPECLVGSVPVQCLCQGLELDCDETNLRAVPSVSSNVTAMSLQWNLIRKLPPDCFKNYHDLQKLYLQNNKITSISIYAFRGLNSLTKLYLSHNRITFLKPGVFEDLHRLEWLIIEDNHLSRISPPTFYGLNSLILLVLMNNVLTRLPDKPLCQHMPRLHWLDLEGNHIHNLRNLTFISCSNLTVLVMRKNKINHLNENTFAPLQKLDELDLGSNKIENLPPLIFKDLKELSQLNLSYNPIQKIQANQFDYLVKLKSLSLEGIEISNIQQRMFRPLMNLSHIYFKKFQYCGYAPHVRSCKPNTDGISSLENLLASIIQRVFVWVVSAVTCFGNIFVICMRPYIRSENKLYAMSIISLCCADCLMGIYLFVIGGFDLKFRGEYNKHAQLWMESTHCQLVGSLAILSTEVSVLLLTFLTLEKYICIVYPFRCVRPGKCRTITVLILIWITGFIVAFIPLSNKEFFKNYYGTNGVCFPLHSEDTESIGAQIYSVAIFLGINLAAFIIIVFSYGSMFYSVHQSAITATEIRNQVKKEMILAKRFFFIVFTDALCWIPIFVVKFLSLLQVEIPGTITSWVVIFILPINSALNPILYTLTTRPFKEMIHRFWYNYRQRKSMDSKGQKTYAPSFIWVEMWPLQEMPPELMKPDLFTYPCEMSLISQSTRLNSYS
Test: cell-based or functional assay
Respond numerically; units are nM and should not be typed.

// below: answered binders
binder	unit_of_measurement	THP1 (endogenous RXFP1) cAMP EC50
SEQ ID NO: 93 (Fc fusion) DKTHTCPPCPAPEAAGGPSVFLFPPKPKDTLMISRTPEVTCVVVDVSHEDPEVKFNWYVDGVEVHNAKTKPREEQYNSTYRVVSVLTVLHQDWLNGKEYKCKVSNKALAAPIEKTISKAKGQPREPQVYTLPPSRDELTKNQVSLTCLVKGFYPSDIAVEWESNGQPENNYKTTPPVLDSDGSFFLYSKLTVDKSRWQQGNVFSCSVLHEALHSHYTQKSLSLSPGEGGSDSWQEEVIKLCGRELVRAQIAICGKSTASDAAGADADAGARQLYSALANKCCHVGCTKRSLAQFC	nM	90
SEQ ID NO: 118 (Fc fusion) DKTHTCPPCPAPEAAGGPSVFLFPPKPKDTLMISRTPEVTCVVVDVSHEDPEVKFNWYVDGVEVHNAKTKPREEQYNSTYRVVSVLTVLHQDWLNGKEYKCKVSNKALAAPIEKTISKAKGQPREPQVYTLPPSRDELTKNQVSLTCLVKGFYPSDIAVEWESNGQPENNYKTTPPVLDSDGSFFLYSKLTVDKSRWQQGNVFSCSVLHEALHSHYTQKSLSLSPGEGGSDSWQEEVIKLCGRELVRAQIAICGQSTASDAAGAQAQAGARQLYSALANKCCHVGCTKQSLAQFC	nM	200

We next turn to a different binder, shown below.
Problem: So what's the measured THP1 (endogenous RXFP1) cAMP EC50 for this one? SEQ ID NO: 95 (Fc fusion) DKTHTCPPCPAPEAAGGPSVFLFPPKPKDTLMISRTPEVTCVVVDVSHEDPEVKFNWYVDGVEVHNAKTKPREEQYNSTYRVVSVLTVLHQDWLNGKEYKCKVSNKALAAPIEKTISKAKGQPREPQVYTLPPSRDELTKNQVSLTCLVKGFYPSDIAVEWESNGQPENNYKTTPPVLDSDGSFFLYSKLTVDKSRWQQGNVFSCSVLHEALHSHYTQKSLSLSPGEGGSDSWQEEVIKLCGRELVRAQIAICGKSTASDAAGAQADAGARQLYSALANKCCHVGCTKRSLAQFC
Solution: 26
